system: Plasmodium falciparum; assay: Calibr Malaria Delayed Death Assay SOP; format: functional, organism-based; parameters: scale not given: in the data most compounds retested in dose-response had high values; conditions: concentration 4.99e-06 (unit not given; other assays of the set use mol/L)
About 1,200 (3.2%) of roughly 38,000 compounds showed an effect of 50% or more. The median lay at about -58%. What follows is part of a selection rich in strong results, with near analogues and random picks from the rest.
Assign classes using reported Percent Effect values and the ranges bucket A: < -90%; bucket B: ≥ -90% and < -30%; bucket C: ≥ -30%, please.

Some solved entries appear below for comparison.
{"columns": ["compound", "test target", "assigned class"],
 "data": [
  ["Nc1nc2c(c(NCc3cnc4c(c3)CCC4)n1)CCNC2", "Plasmodium falciparum", "bucket B"],
  ["Cc1ccc(CN2CCC3(CCCN(C(=O)N(C)C)C3)C2)cc1 (stereo not drawn)", "Plasmodium falciparum", "bucket B"],
  ["CC(C)COCCNC1CCN(c2ccccn2)CC1", "Plasmodium falciparum", "bucket C"],
  ["CCn1ccnc1CN(C)C1CCCN(CCc2ccccc2)C1 (stereo not drawn)", "Plasmodium falciparum", "bucket C"]
]}

Ask | Exam item: assign O=C(O)C(F)(F)F.O=C(O)C(F)(F)F.c1cncc(-c2ncnc3c2CCN(Cc2ccsc2)CC3)c1 to the correct category.
Reply | bucket A

Ask | Exam item: assign CCOC(=O)c1cnn(-c2cc(Oc3ccccc3C)ncn2)c1N to the correct category.
Reply | bucket B

Ask | Exam item: assign CC(=O)N1[C@H](CN(C)C)C[C@@H]2CN(C(=O)c3cccc(F)c3)CC[C@@H]21.O=C(O)C(F)(F)F to the correct category.
Reply | bucket A

Ask | Exam item: assign N#Cc1c[nH]nc1NCc1ccc2c(c1)OCO2 to the correct category.
Reply | bucket A

Ask | Exam item: assign O=C(CSc1ccc2c(c1)OCCO2)NS(=O)(=O)c1ccccc1Br to the correct category.
Reply | bucket C

Ask | Exam item: assign CNC(=O)c1cc2c(nc1NCC(C)C)CCN(c1ccncn1)CC2.O=C(O)C(F)(F)F to the correct category.
Reply | bucket C

====

tested on: Plasmodium falciparum; test: Calibr Malaria Delayed Death Assay SOP; assay type: functional, organism-based; parameters: scale not given: in the data most compounds retested in dose-response had high values; details: concentration 4.99e-06 (unit not given; other assays of the set use mol/L)
About 1,200 (3.2%) of roughly 38,000 compounds showed an effect of 50% or more. The median lay at about -58%. Shown is part of a subset that was picked to be rich in strong results.
measurement kind: Percent Effect (%)
Express it in %; write the number only.

Some compounds with recorded Percent Effect:
{"columns": ["compound", "data value"],
 "data": [
  ["Cl.Cl.Fc1ccc2c(c1)C1(CCNCC1)CC2NC1CC1 (stereo not given)", 82.19],
  ["CC(NCC1(N(C)C)CCOCC1)c1ccc(Cl)cc1 (stereo not given)", 72.75],
  ["Cc1ccc2c(c1)C1(CCNCC1)CC2NCCO.Cl.Cl (stereo not given)", -29.16],
  ["Cc1nc(CC(=O)N2CCCC(n3ccnc3C(C)C)C2)cs1 (stereo not given)", -131],
  ["COCCCn1c(CN2CCCCO2)cnc1S(=O)(=O)C1CCCC1", -131.1]
]}

We now examine a further compound.
Percent Effect for Fc1ccc2c(c1)C1(CCNCC1)CC2OCC1CC1 (stereo not given) is 69.13

====

tested on: Plasmodium falciparum; experiment: Calibr Malaria Delayed Death Assay SOP; type: functional, organism-based; parameters: scale not given: in the data most compounds retested in dose-response had high values; details: concentration 4.99e-06 (unit not given; other assays of the set use mol/L)
The campaign covered roughly 38,000 compounds. About 1,200 (3.2%) showed an effect of 50% or more. The median lay at about -58%. For the sample, strong results were picked, then their nearest neighbours and some compounds at random.
Reported Percent Effect values for a set of molecules
Express it in %; write the number only.

Some molecules with recorded Percent Effect:
{"columns": ["molecule", "unit label", "Percent Effect"],
 "data": [
  ["O=C(NCCCN1CCOCC1)c1ccc(-n2ccc3ccccc32)s1", "%", 33.29],
  ["Cc1nc[nH]c1-c1nccn1CCN1CCCOC1=O", "%", -113],
  ["CCN(CC1CCCN(CCc2cccc(OC)c2)C1)C(=O)CO (centres undefined)", "%", 28.13],
  ["NC1CCCN(Cc2cccc(C(F)(F)F)c2)C1=O (centres undefined)", "%", -34.65]
]}

Percent Effect for Fc1cnc(N2C[C@H]3CCC[C@@]3(COc3ccccn3)C2)nc1.O=C(O)C(F)(F)F.O=C(O)C(F)(F)F is 3.485

Percent Effect for O=C(CN1CCc2onc(-c3ccccc3F)c2C1)NC1CC1 is -100.2

Percent Effect for Cc1noc(C)c1CN1CCc2ncnc(-c3cnn(C)c3)c2CC1.O=C(O)C(F)(F)F is -17.12

Percent Effect for CC(C)(C)OC(=O)N1CCN(c2nnc(Br)s2)CC1 is -125.7

Percent Effect for CC1c2ccsc2CCN1Cc1cc2c(cc1O)OCO2 (centres undefined) is 25.38

Percent Effect for O=C(C1CCC2(CCN(Cc3cccnc3)CC2)CO1)N1CCCC1.O=C(O)C(F)(F)F.O=C(O)C(F)(F)F (centres undefined) is -51.34

Percent Effect for Cc1[nH]nc(CCC(=O)N2CCc3c(nc[nH]c3=O)C2)c1C is -169.9

Percent Effect for CS(=O)(=O)N1CCCC(Cc2cncc(Br)c2)CC1 (centres undefined) is -9.475

Percent Effect for CC(C)c1nc(C2CCCN(C(=O)CCn3ccccc3=O)C2)no1 (centres undefined) is -110.1

Percent Effect for O=C(NCCN1CCOCC1)C1=NOC2(CCN(Cc3nccs3)C2)C1 (centres undefined) is -143.8

Percent Effect for Cc1ccc(F)c(S(=O)(=O)NCCc2nnc[nH]2)c1 is -33.36

Percent Effect for O=C(O)C1CCN(C(=O)Cn2ccc3c(Cl)cccc32)CC1 is -74.89

====

test system: Plasmodium falciparum; assay: Calibr Malaria Delayed Death Assay SOP; type: functional, organism-based; design: scale not given: in the data most compounds retested in dose-response had high values; conditions: concentration 4.99e-06 (unit not given; other assays of the set use mol/L)
Among all 38,000 compounds or so, about 1,200 (3.2%) showed an effect of 50% or more. The median lay at about -58%. This excerpt belongs to a sample that is enriched for strong results.
Values of Percent Effect strictly less than -40% map to condition met, and values of at least -40% map to condition not met.

{"columns": ["molecule", "assigned class"],
 "data": [
  ["CNc1cc(-c2cccc(CN)c2)c2cc[nH]c2n1", "condition met"],
  ["COc1ccccc1CCN[C@@H]1c2ccccc2C2(CCNCC2)[C@H]1O", "condition not met"],
  ["Cc1n[nH]c(C)c1-c1cc(-c2cc[nH]c2)nc(N)c1C#N", "condition met"],
  ["COc1cc(OC)nc(N2CCCC(c3nccn3CCN(C)C)C2)n1 (stereo unspecified)", "condition not met"],
  ["CCN1CCC(CNc2nccc(C)n2)(N(C)C)CC1", "condition met"],
  ["N#Cc1ccc(OC[C@]23COC[C@H]2CN(Cc2ccccn2)C3)nc1", "condition met"],
  ["O[C@H]1[C@H](NCCc2ccccn2)c2ccccc2C12CCNCC2", "condition not met"],
  ["c1ccc(CO[C@H]2CO[C@@]3(CCCN(Cc4ccncc4)C3)C2)nc1", "condition not met"],
  ["O=C(NCCn1cccn1)c1ccn(-c2cccc(F)c2)n1", "condition met"],
  ["Cc1ccc(CCN[C@@H]2c3ccccc3C3(CCNCC3)[C@H]2O)s1", "condition not met"]
]}

Attention now turns to another entry.
Ask | Determine whether this molecule shows Percent Effect lower than -40% (ties excluded): O[C@H]1[C@H](NCCSc2ccccn2)c2ccccc2C12CCNCC2
Reply | condition not met

====

system: Plasmodium falciparum; assay: Calibr Malaria Delayed Death Assay SOP; type: functional, organism-based; set-up: scale not given: in the data most compounds retested in dose-response had high values; details: concentration 4.99e-06 (unit not given; other assays of the set use mol/L)
Screen size: about 38,000 compounds; about 1,200 (3.2%) showed an effect of 50% or more. The median lay at about -58%. The entries come from a sample that favours strong results as a whole.
Give 1 (yes) when the value for Percent Effect is at least -80%. Give 0 (no) when it is less.

Some solved entries appear below for comparison.
{"columns": ["molecule", "assigned class"],
 "data": [
  ["Cn1nc(CNC(=O)C2CCN(S(C)(=O)=O)CC2)cc1C1CC1", "1 (yes)"],
  ["NS(=O)(=O)NCc1cc(-c2ccc(C(F)(F)F)cc2)n[nH]1", "1 (yes)"],
  ["CC(C)N(C)C(=O)C1=NOC2(CCN(C(=O)c3ccnnc3)C2)C1 (stereo not drawn)", "0 (no)"],
  ["Cc1cc(C)n(C2CN(CC(=O)NC3CCS(=O)(=O)C3)C2)n1 (stereo not drawn)", "0 (no)"],
  ["CN(C)CCCNC(=O)c1nc(Cc2c(Cl)cccc2Cl)no1", "1 (yes)"],
  ["Cn1nc(-c2ccccc2)c(Br)c1C(=O)O", "1 (yes)"],
  ["O=C(O)C(F)(F)F.O=C(O)C(F)(F)F.c1coc(CN2CCCn3c(CN4CCOCC4)nnc3C2)c1", "1 (yes)"],
  ["Cc1nn(Cc2ccc(C(=O)NCCCN3CCCC3=O)o2)c(C)c1Br", "0 (no)"]
]}

Ask | Reported Percent Effect at or above -80%? Cc1ncoc1C(=O)N1CCOC(CC2CCCCC2)C1 (stereo not drawn)
Reply | 0 (no)

Ask | Reported Percent Effect at or above -80%? O=C(c1ccoc1)N1CC[C@H]2C[C@@H](c3ccncn3)O[C@@H]2C1
Reply | 1 (yes)

Ask | Reported Percent Effect at or above -80%? CC(C)c1noc(C2CCN(C(=O)c3cccs3)CC2)n1
Reply | 1 (yes)

Ask | Reported Percent Effect at or above -80%? COCCC(=O)N1CCC2(COCc3cnc(-c4cccnc4)nc32)C1 (stereo not drawn)
Reply | 1 (yes)

Ask | Reported Percent Effect at or above -80%? N#Cc1ccccc1CN1CCc2sccc2C1
Reply | 0 (no)

Ask | Reported Percent Effect at or above -80%? Cc1ccc(CNC(=O)C2CCNC(=O)C2)c(OCCC(C)C)c1 (stereo not drawn)
Reply | 0 (no)

Ask | Reported Percent Effect at or above -80%? Cc1cccc(CN2CCC3(CCCN(Cc4cnn(C)c4)C3)C2)n1.O=C(O)C(F)(F)F.O=C(O)C(F)(F)F (stereo not drawn)
Reply | 1 (yes)

Ask | Reported Percent Effect at or above -80%? CCCC(NC(=O)c1ccc(C)cc1C)c1nnn[nH]1 (stereo not drawn)
Reply | 1 (yes)

Ask | Reported Percent Effect at or above -80%? Cc1cccc(CN2CCCC3(CCN(CC4CCCO4)CC3)C2)n1.O=C(O)C(F)(F)F.O=C(O)C(F)(F)F (stereo not drawn)
Reply | 1 (yes)

Ask | Reported Percent Effect at or above -80%? Cc1cc(C)n2c(CCCNS(=O)(=O)c3cccs3)nnc2n1
Reply | 1 (yes)

Ask | Reported Percent Effect at or above -80%? CC(C)COCCCNC(=O)c1cccnc1N1CCOCC1
Reply | 0 (no)

Ask | Reported Percent Effect at or above -80%? COc1ccccc1CNC(=O)N1CCN(Cc2cc(C)on2)CC1
Reply | 1 (yes)

Ask | Reported Percent Effect at or above -80%? Cc1cccc(NC(=O)CN2C(=O)CC(C)(C)c3ccccc32)n1
Reply | 1 (yes)

Ask | Reported Percent Effect at or above -80%? NCC(c1ccccc1)N1CCc2sccc2C1 (stereo not drawn)
Reply | 1 (yes)
